Listing of recorded KD ratio (Ab1/variant Ab) by entry.
# TEST SYSTEM: T1, EGFRvIII extracellular domain (EGFR (1-29)-G-(298-645)-LESRGPF-Myc-NMHTG-6His) (human, UniProt P00533 298-641)
# T1 construct: also called recombinant EGFRvIII; not shown: Myc tag
# METHOD: SPR (Biacore), antibody captured via anti-human Fc, antigen injected
# Protocol: Biacore analysis was performed using a Biacore T100 with a CM5 sensory chip, and test antibodies were captured via anti-human Fc antibodies that were amino coupled to the chip using a standard amine coupling kit according to manufacturer's instructions (GE healthcare). […] The Biacore T100 is a surface plasmon resonance based biosensor for detecting, characterizing and quantifying bimolecular interactions, including the interactions between an antibody and its antigen. […]
Just the number, please.

Answered examples (2):
{"columns": ["BINDER", "MEASURED RESULT"],
 "data": [
  ["Antibody B (AbB) (antibody, V domains shown, Converted from scFv into a full length IgG1 antibody) VH: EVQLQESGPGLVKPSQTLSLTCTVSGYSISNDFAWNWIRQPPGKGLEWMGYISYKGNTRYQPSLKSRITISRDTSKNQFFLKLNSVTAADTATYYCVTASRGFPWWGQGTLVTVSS VL: DIQMTQSPSSMSVSVGDRVTITCHSSQDINSNIGWLQQKPGKSFKGLIYHGTNLDDGVPSRFSGSGSGTDYTLTISSLQPEDFATYYCVQYAQFPWTFGGGTKLEIK", 4.2],
  ["Antibody J (AbJ) (antibody, V domains shown, Full length IgG1) VH: EVQLQESGPGLVKPSQTLSLTCTVSGYSIGKDFAWNWIRQPPGKGLEWMGYISYSGNTRYQPSLKSRITISRDTSKNQFFLKLNSVTAADTATYYCVTASRGLPYWGQGTLVTVSS VL: DIQMTQSPSSMSVSVGDRVTITCHSSQDITYNIGWLQQKPGKSFKGLIYHGANLDDGVPSRFSGSGSGTDYTLTISSLQPEDFATYYCVQYDEFPWTFGGGTKLEIK", 31.8]
]}

Let's switch to this binder now.
Lookup: Indicate its recorded KD ratio (Ab1/variant Ab); the binder in question is Antibody F (AbF) (antibody, V domains shown, Full length IgG1) VH: EVQLQESGPGLVKPSQTLSLTCTVSGYSISRDFAWNWIRQPPGKGLEWMGYISYSGNTRYQPSLKSRITISRDTSKNQFFLKLNSVTAADTATYYCVTASRGFPYWGQGTLVTVSS VL: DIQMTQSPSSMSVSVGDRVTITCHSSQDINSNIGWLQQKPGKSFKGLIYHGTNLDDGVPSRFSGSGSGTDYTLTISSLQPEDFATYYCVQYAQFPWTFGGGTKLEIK
Found: 2.4

Reference source for all entries: patent US20150337042A1
